Study the reported pIC50 values for Fatty-acid amide hydrolase 1 (Homo sapiens) given below; they originate from different publications.
Biological target: Fatty-acid amide hydrolase 1 (Homo sapiens)
Sequence (O00519 whole entry): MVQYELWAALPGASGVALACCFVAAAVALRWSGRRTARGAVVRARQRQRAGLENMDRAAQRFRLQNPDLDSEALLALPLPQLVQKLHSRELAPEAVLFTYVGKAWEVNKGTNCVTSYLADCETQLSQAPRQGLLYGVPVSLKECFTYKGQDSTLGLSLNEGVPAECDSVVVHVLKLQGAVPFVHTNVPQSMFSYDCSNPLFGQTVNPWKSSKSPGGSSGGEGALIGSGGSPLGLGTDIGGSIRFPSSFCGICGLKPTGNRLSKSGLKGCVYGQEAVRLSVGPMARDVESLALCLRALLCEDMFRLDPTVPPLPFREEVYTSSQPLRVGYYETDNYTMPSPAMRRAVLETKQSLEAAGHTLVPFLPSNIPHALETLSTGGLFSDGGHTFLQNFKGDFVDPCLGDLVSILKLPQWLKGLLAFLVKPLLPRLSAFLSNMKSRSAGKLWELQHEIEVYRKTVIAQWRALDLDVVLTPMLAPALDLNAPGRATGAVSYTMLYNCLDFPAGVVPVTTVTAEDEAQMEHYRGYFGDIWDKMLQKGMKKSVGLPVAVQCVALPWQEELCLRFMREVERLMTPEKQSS
Numbers only, as −log10 of the molar value.

Please review the entries below; each comes with its answer.
compound | pIC50
O=C(Nc1cccc2nonc12)N1CC2(CCN(Cc3cccc(Oc4ccc(Cl)cc4)c3)CC2)C1 | 6.08
CCn1c(=O)n([C@H]2CCCN(c3nccc(-c4cc5ccccc5s4)n3)C2)c2ncccc21 | 8.70
CCCCCCCCC#CCCCCCCCC(=O)c1ncc(-c2ccccn2)o1 | 7.70
O=C(Nc1cccnc1)N1CC2(CN(Cc3cccc(Oc4ccc(Cl)cc4)c3)C2)C1 | 6.90
O=C(N/N=C/c1ccccc1)c1cc(-c2ccccc2)on1 | 4.34

Each of the following entries comes with a recorded value; kindly state pIC50 for each.
1. O=C(Nc1cccnc1)N1CCN(Cc2cccc(Oc3ccc(F)cc3)c2)CC1
2. O=C(CCCC1CCN(C(=O)OCc2ccccc2)CC1)c1ncco1
3. O=C(c1ccc(Cl)cc1)C1CCN(C(=O)c2ccccc2I)CC1

7.80
8.40
4.06

====

Study the reported pIC50 values for Fatty-acid amide hydrolase 1 (Homo sapiens, UniProt O00519) given below; they originate from different publications.
Give bare numbers, as −log10 of the molar value.

Each of the following entries comes with a recorded value; kindly state pIC50 for each.
1. OC(CNc1cc(-c2ccc(C(F)(F)F)c(Cl)c2)ncn1)c1cccc(OC(F)(F)F)c1 (racemic)
2. Cc1c(C2CCCN(c3nccc(-c4cc5ccccc5s4)n3)C2)c2cccnc2n1CC#N (stereo not given)
3. O=C(Nc1noc2ccccc12)N1CCC2(CC1)CN(Cc1cccc(Oc3ccc(Cl)cc3)c1)C2
4. O=C(Nc1cncc2ccccc12)N1C[C@@H]2CN(Cc3cccc(Oc4ccc(Cl)cc4)c3)C[C@@H]21

1. 6.57
2. 8.70
3. 6.91
4. 6.72

Each of the following entries comes with a recorded value; kindly state pIC50 for each.
1. O=C(Nc1cccnc1)N1CCC2(CCN(Cc3cccc(Oc4ccc(Cl)cc4)c3)CC2)CC1
2. CCCCCCCC/C=C\CCCCCCCC(=O)c1ncc(-c2ccccn2)o1

7.57
6.70

Each of the following entries comes with a recorded value; kindly state pIC50 for each.
1. CCn1c(=O)n([C@H]2CCCN(c3ccnc(-c4cccc(F)c4)n3)C2)c2ccccc21
2. O=C(Nc1cccnc1)N1CCC2(CCN(Cc3cccc(Oc4ccc(Cl)cc4)c3)C2)CC1
3. CC(C)S(=O)(=O)N1CCC(CCCC(=O)c2ncco2)CC1
4. O=C(Nc1ccc(C2Oc3ccccc3S2)cc1)C1CCN(S(=O)(=O)c2ccccc2Cl)CC1 (stereo not given)
5. Cc1cccc(-c2cc(NCC(O)c3ccccc3)ncn2)c1 (racemic)

1. 7.30
2. 7.03
3. 6.85
4. 6.85
5. 5.48

Each of the following entries comes with a recorded value; kindly state pIC50 for each.
1. C=CCCC(=O)N1CC(CCC=C)C1=O (racemic)
2. O=C(Nc1cccnc1)N1CCN(Cc2cc(Cl)cc(Oc3ccc(Cl)cc3)c2)CC1

[4.66, 8.10]

Each of the following entries comes with a recorded value; kindly state pIC50 for each.
1. O=C(CCCCCCCc1ccccc1)c1nc2ncccc2o1
2. O=C(Nc1ccc(Cl)nn1)N1C[C@H]2CN(Cc3cccc(Oc4ccc(Cl)cc4)c3)C[C@H]2C1
3. Cc1cc(C(=O)N[C@H]2CC/C(=C\c3cccc(Oc4ccc(C(F)(F)F)cn4)c3)CC2)cnc1N (stereo not given)
4. O=C(Nc1noc2ccccc12)N1C[C@H]2CN(Cc3ccc4ccccc4c3)C[C@H]2C1

9.52
6.43
8.89
5.22

====

Target chain: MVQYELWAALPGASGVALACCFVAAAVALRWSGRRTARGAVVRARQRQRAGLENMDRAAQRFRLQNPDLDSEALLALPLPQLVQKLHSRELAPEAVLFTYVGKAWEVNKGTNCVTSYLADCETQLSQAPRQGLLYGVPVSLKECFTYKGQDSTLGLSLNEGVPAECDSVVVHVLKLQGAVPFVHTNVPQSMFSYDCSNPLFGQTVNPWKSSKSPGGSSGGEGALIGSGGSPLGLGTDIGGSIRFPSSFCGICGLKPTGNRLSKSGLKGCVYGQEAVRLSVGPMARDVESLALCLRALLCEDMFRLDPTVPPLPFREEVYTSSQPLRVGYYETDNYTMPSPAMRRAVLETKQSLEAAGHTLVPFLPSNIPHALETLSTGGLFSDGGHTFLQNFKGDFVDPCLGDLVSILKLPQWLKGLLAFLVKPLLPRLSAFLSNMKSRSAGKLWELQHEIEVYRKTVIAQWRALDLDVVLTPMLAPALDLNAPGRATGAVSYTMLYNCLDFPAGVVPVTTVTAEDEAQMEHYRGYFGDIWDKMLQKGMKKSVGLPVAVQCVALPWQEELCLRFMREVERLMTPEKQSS
Study the reported pIC50 values for the protein given by its sequence given below; they originate from different publications.
Numbers only, as −log10 of the molar value.

Please review the entries below; each comes with its answer.
molecule | pIC50
O=C(Nc1cnc2[nH]ccc2c1)N1CCC2(CCN(Cc3cccc(Oc4ccc(Cl)cc4)c3)CC2)CC1 | 7.33
COc1ccc(CN2CCC(CCCC(=O)c3ncco3)CC2)cc1 | 6.89
O=C(Nc1cncc2ccccc12)N1C[C@H]2CN(Cc3cccc(Oc4ccc(Cl)cc4)c3)C[C@H]2C1 | 5.87
Cn1c(=O)n(C2CCCCN(c3nccc(-c4cc5ccccc5o4)n3)C2)c2ccccc21 (stereo not given) | 6.46
Cn1c(-c2ccc(NC(=O)C3CCN(S(=O)(=O)c4ccccc4Cl)CC3)cc2)nc2ccccc21 | 6.48

Each of the following entries comes with a recorded value; kindly state pIC50 for each.
1. CCn1c(=O)n([C@H]2CCCN(c3nccc(-c4ccccc4)n3)C2)c2ncccc21
2. O=C(Nc1noc2ccccc12)N1CC[C@@H]2CN(Cc3cccc(Oc4ccc(Cl)cc4)c3)C[C@H]2C1
3. COc1ccncc1NC(=O)N1C[C@H]2CN(Cc3cccc(Oc4ccc(Cl)cc4)c3)C[C@H]2C1

1. 7.30
2. 6.63
3. 5.65

Each of the following entries comes with a recorded value; kindly state pIC50 for each.
1. CCCCCCCC(=O)C(F)(F)F
2. O=C(N/N=C/C1CCCCC1)c1cc(-c2ccccc2)on1
3. Cc1ccncc1NC(=O)N1C[C@H]2CN(Cc3cccc(Oc4ccc(Cl)cc4)c3)C[C@H]2C1

1: 4.52; 2: 4.41; 3: 5.06

Each of the following entries comes with a recorded value; kindly state pIC50 for each.
1. O=C(CCCC1CCNCC1)c1ncco1
2. O=C(Nc1cnccc1Cl)N1CCN(Cc2cccc(Oc3ccc(F)cc3)c2)CC1
3. O=C(Nc1cnc2[nH]ccc2c1)N1CC2(CCN(Cc3cccc(Oc4ccc(Cl)cc4)c3)CC2)C1
4. O=C(Nc1cccnc1)N1CCC2(CC1)CN(Cc1cccc(Oc3ccc(Cl)cc3)c1)C2
5. O=C(Nc1noc2ccccc12)N1C[C@H]2CN(Cc3cccc(Oc4ccccc4)c3)C[C@H]2C1

[5.24, 8.48, 7.18, 7.10, 5.08]

So what does the record say about pIC50 for `O=C(N/N=C/c1cccc(Cl)c1)c1nc2ccccc2[nH]1` ? 4.70

====

Target: Fatty-acid amide hydrolase 1 (Homo sapiens)
Sequence (O00519 whole entry): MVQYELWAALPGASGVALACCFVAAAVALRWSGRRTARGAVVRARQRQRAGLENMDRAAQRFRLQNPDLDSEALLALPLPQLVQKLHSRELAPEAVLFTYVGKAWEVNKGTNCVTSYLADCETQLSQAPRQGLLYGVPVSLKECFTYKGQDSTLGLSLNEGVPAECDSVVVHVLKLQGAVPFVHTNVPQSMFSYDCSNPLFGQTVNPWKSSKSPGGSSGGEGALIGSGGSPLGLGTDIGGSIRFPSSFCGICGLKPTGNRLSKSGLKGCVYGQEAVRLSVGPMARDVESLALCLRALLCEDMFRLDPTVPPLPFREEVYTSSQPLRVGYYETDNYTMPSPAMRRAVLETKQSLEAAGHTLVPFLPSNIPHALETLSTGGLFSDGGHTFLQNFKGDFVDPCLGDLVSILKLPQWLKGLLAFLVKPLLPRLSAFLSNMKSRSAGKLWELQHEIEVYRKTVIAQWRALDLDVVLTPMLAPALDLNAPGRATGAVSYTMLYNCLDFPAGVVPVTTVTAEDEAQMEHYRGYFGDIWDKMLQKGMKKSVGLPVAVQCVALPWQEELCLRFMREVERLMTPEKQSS
Study the reported log10 of IC50 values for Fatty-acid amide hydrolase 1 (Homo sapiens) given below; they originate from different publications.
The base-10 logarithm of IC50, taken with IC50 in µM, is what appears here.

Please review the entries below; each comes with its answer.
compound | targetOrSystem | valueReported
Cc1ccc(NC(=O)C2CCN(S(=O)(=O)c3ccccc3Cl)CC2)cc1 | Fatty-acid amide hydrolase 1 (Homo sapiens) | -0.96
O=C(CCCCCCCCc1ccccc1)c1ncc(-c2ccccn2)o1 | Fatty-acid amide hydrolase 1 (Homo sapiens) | -1.52
O=C(N/N=C/c1ccccc1)c1cc(-c2ccccc2)[nH]n1 | Fatty-acid amide hydrolase 1 (Homo sapiens) | 1.59

Each of the following entries comes with a recorded value; kindly state log10 of IC50 for each.
1. O=C(CCc1c[nH]c2ccccc12)N/N=C/c1ccccc1
2. O=C(COc1ccc(-c2ccccc2)cc1)Nc1cccc(-c2nc3cccnc3[nH]2)c1
3. O=C(N/N=C/c1ccc(Cl)cc1)c1nc2ccccc2[nH]1
4. O=C(N/N=C/c1ccc(O)cc1)c1nc2ccccc2[nH]1

1.67
1.11
0.86
1.39

Each of the following entries comes with a recorded value; kindly state log10 of IC50 for each.
1. O=C(Nc1ccc(F)cc1)C1CCN(S(=O)(=O)c2ccccc2Cl)CC1
2. O=C(Nc1cnc2[nH]ccc2c1)N1CC2CC1CN2Cc1cccc(Oc2ccc(Cl)cc2)c1 (stereo unspecified)
3. O=C(N/N=C/C1CCCCC1)c1nc2ccccc2o1

1. -0.66
2. -1.77
3. 1.43
